The measurements presented in this section are drawn from ChEMBL document CHEMBL2434880.

# target: Class 1 phosphodiesterase PDEB1 (Trypanosoma brucei) (UniProt Q8WQX9)
# Sequence (whole entry): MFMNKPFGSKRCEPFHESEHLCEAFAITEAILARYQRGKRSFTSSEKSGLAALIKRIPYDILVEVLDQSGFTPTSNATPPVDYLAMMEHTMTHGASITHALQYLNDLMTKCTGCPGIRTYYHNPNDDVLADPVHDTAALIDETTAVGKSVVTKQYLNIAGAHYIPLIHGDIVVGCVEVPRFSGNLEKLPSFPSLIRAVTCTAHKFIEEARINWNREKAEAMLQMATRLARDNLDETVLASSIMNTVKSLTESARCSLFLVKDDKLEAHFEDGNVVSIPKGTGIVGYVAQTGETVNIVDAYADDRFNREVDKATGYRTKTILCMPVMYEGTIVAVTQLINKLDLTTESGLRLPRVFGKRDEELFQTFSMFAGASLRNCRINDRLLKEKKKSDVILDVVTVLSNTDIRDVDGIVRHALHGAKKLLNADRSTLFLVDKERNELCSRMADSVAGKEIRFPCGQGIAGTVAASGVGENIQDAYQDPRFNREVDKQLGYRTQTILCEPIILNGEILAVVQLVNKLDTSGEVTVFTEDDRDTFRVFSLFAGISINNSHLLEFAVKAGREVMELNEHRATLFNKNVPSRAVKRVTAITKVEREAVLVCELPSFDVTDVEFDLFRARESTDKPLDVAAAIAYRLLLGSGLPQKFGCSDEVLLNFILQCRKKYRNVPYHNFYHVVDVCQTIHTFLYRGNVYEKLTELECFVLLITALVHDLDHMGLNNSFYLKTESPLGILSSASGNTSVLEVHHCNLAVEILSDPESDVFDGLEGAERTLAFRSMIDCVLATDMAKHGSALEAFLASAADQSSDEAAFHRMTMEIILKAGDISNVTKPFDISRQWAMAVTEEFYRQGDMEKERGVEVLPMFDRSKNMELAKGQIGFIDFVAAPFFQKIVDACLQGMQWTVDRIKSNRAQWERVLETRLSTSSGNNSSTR
# procedure details: Inhibition of Trypanosoma brucei recombinant PDEB1 at 10 uM by spectrophotometric analysis relative to control
result type: inhibition (%)
Give bare numbers, in %.

Record excerpt, results attached:
{"smiles": "COc1ccc(-c2ccnc(N(C)C)c2)cc1OC1CCCC1", "target": "Class 1 phosphodiesterase PDEB1 (Trypanosoma brucei) (UniProt Q8WQX9)", "unit": "%", "inhibition": 34}
{"smiles": "COc1ccc(-c2ccnc(NC3CCCCCC3)n2)cc1OC1CCCC1", "target": "Class 1 phosphodiesterase PDEB1 (Trypanosoma brucei) (UniProt Q8WQX9)", "unit": "%", "inhibition": 20.6}
{"smiles": "COc1ccc(-c2ccncc2)cc1OC1CCCC1", "target": "Class 1 phosphodiesterase PDEB1 (Trypanosoma brucei) (UniProt Q8WQX9)", "unit": "%", "inhibition": 18.7}

# map each compound to its inhibition
1. COc1ccc(-c2ccnc(NC3CCCCC3)c2)cc1OC1CCCC1
2. COc1ccc(-c2ccnc(NCc3ccccc3)n2)cc1OCc1ccccc1
3. COc1ccc(-c2ccnc(NC3CCCCC3)n2)cc1OCc1ccccc1
4. COc1ccc(-c2ccnc(NC3CCCCCC3)n2)cc1OCc1ccccc1
5. COc1ccc(-c2cccc3ncccc23)cc1OC1CCCC1
6. COc1ccc(-c2ccnc(NCc3ccccc3)n2)cc1OC1CCCC1

a:
27.1
18.5
23.2
22.3
69.1
32.9

# map each compound to its inhibition
1. COc1ccc(-c2ccnc(NCc3ccccc3)c2)cc1OCc1ccccc1
2. COc1ccc(-c2ccnc(NC3CCCCC3)c2)cc1OCc1ccccc1
3. COc1ccc(-c2ccnc(N(C)C)n2)cc1OCc1ccccc1
4. COc1ccc(-c2ccnc(NC3CCCC3)n2)cc1OCc1ccccc1

a:
7.2
28.4
14.5
21.8

q: Item `COc1ccc(-c2ccnc(N(C)C)n2)cc1OC1CCCC1` : provide inhibition
a: 15.8
